- Test system: Klebsiella pneumoniae KAE
- experiment: MIC, standard agar-dilution assay
- Assay type: cell-based

>  <compound>
CNC(CC(C)C)C(=O)NC1C(=O)NC(CC(N)=O)C(=O)NC2C(=O)NC3C(=O)NC(C(=O)NC(C(=O)O)c4cc(O)cc(O)c4-c4cc3ccc4O)C(OC3CC(C)(N)C(O)C(C)O3)c3ccc(c(Cl)c3)Oc3cc2cc(c3OC2OC(CO)C(O)C(O)C2OC2CC(C)(NCc3ccccc3)C(O)C(C)O2)Oc2ccc(cc2Cl)C1O (stereo not shown)

>  <system name>
Klebsiella pneumoniae KAE

>  <MIC>
> 128 µg/mL

$$$$

====

Documented MIC across a set of compounds
- Tested on: Staphylococcus aureus V41
- experiment: MIC, standard agar-dilution assay
- Type: cell-based
parameter measured: MIC (µg/mL)

>  <compound>
CCCCCNC1(C)CC(OC2c3ccc(cc3)Oc3cc4cc(c3OC3OC(CO)C(O)C(O)C3O)Oc3ccc(cc3Cl)C(O)C(NC(=O)C(CC(C)C)NC)C(=O)NC(CC(N)=O)C(=O)NC4C(=O)NC3C(=O)NC2C(=O)NC(C(=O)O)c2cc(O)cc(O)c2-c2cc3ccc2O)OC(C)C1O (stereo not drawn)

>  <parameter measured>
MIC

>  <measured number>
2

$$$$
>  <compound>
CNC(CC(C)C)C(=O)NC1C(=O)NC(CC(N)=O)C(=O)NC2C(=O)NC3C(=O)NC(C(=O)NC(C(=O)O)c4cc(O)cc(O)c4-c4cc3ccc4O)C(OC3CC(C)(N)C(O)C(C)O3)c3ccc(c(Cl)c3)Oc3cc2cc(c3OC2OC(CO)C(O)C(O)C2OC2CC(C)(NCc3ccc(F)cc3)C(O)C(C)O2)Oc2ccc(cc2Cl)C1O (stereo not drawn)

>  <parameter measured>
MIC

>  <measured number>
1

$$$$
